// compounds with reported IC50 on UniProt:Q92769, multi-publication
State just the number; it will be interpreted in nM.

Query: IC50; subject: O=C(CCCCCCC(=O)Nc1cccc(-c2ccccn2)n1)NO
1940

Similarly, O=C(CCCCCCNC(=O)c1ccc(NC(=O)CCCCCCCCCCCN(C(=O)CCl)C(C(=O)NCc2ccccc2)c2ccc(Cl)c(Cl)c2)cc1)NO (stereo not shown) ?
2150

Similarly, Nc1ccccc1NC(=O)c1ccc(CNC[C@H]2CN(c3ccc(N4CCOCC4)c(F)c3)C(=O)O2)cc1 ?
2020

Similarly, O=C(CCCCCCNC(=O)c1ccc(N(C(=O)CCl)C(C(=O)NCc2ccccc2)c2ccc(Cl)c(Cl)c2)cc1)NO (stereo not shown) ?
298
